Assay name: reducers of endogenous Her2 protein level, primary screen, SKBR3 breast tumor cells, AlphaScreen, ATP viability (AID 461);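 also: percent of carrier control wells set as 100% viability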
Condition parameters: 18-24 h, measured here: SKBR3 viability, ATP luminescence, at 10 µM
Assay readout: viability (%)

- Compound: "Cc1ccc(-n2ncc3c(N4CCN(c5ccccc5)CC4)ncnc32)c(C)c1"
  Value units: "%"
  Value reported: 93
- Compound: "CCn1c(C(Cc2ccccc2)NC(=O)COC)nc2ccccc21 (stereo unspecified)"
  Value units: "%"
  Value reported: 102
- Compound: "Cn1c2c(c(=O)[nH]c1=O)C(NC(=O)c1ccco1)(C(F)(F)F)C(=O)N2 (stereo unspecified)"
  Value units: "%"
  Value reported: 112
- Compound: "Cc1ccc(-c2nnc(SCC(=O)N3CC(C)CC(C)C3)o2)cc1C (stereo unspecified)"
  Value units: "%"
  Value reported: 97
- Compound: "Cn1c(CN2CCOCC2)nnc1SCC(=O)NCCc1ccccc1"
  Value units: "%"
  Value reported: 104
- Compound: "CCn1c2ccccc2c2cc(N)ccc21"
  Value units: "%"
  Value reported: 117
- Compound: "COc1ccccc1NS(=O)(=O)c1ccc(OC)c(OC)c1"
  Value units: "%"
  Value reported: 86
- Compound: "Cc1ccccc1N1CC(c2nc3ccccc3[nH]2)CC1=O (stereo unspecified)"
  Value units: "%"
  Value reported: 102
- Compound: "CN(CC(=O)N1CCN(C2CCCCC2)CC1)S(=O)(=O)c1cccc2nsnc12"
  Value units: "%"
  Value reported: 88
- Compound: "CCOC(=O)c1sc2nc(N3CCCC3)c3c(c2c1N)CC(C)(C)OC3"
  Value units: "%"
  Value reported: 75.5
- Compound: "O=C(NCCSCc1ccco1)Nc1cccc(Cl)c1"
  Value units: "%"
  Value reported: 83.5

====

Assay name: HUVEC growth inhibition – cell-based, human, primary screen (AID 575);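 also: 100% = median of untreated cell wells with 0.1% DMSO on each plate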
Condition parameters: HUVEC proliferation, CellTiter-Glo luminescence, 72 h; at 10 µM; stronger effect = lower value
Kindly apply the following: Met if viability is less than 60%, Not met in every other case.

- Molecule: "O=C(CCn1c(=O)oc2ccccc21)N1CCN(c2ccccc2Cl)CC1"
  Category label: "Met"
- Molecule: "CCOC(=O)N1CCC(NC(=O)C2CCC(Cn3c(=O)[nH]c4ccccc4c3=O)CC2)CC1 (stereo not given)"
  Category label: "Not met"
- Molecule: "Cc1ccc(S(=O)(=O)N2CCN(c3nc(C)nc4sc(C)c(C)c34)CC2)cc1"
  Category label: "Not met"
- Molecule: "CCOC(=O)c1ccc(NS(=O)C23CC4CC(CC(C4)C2)C3)cc1 (stereo not given)"
  Category label: "Not met"

====

# viability listing for each entry below
Assay name: growth inhibitors of H69AR lung tumor, primary screen, human, duplicate replicates (AID 580);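 also: 100% = mean luminescence of untreated wells and 0% = no signal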
Condition parameters: H69AR lung tumor cells viability, ATP luminescence, 72 h; at 10 µM; stronger effect = lower value
Peptide text beside a SMILES is read from it. * marks the point of attachment. Boc = CC(C)(C)OC(=O)*

- Molecule: "CCOC(=O)C(NC(=O)CC)(Nc1ccc(S(=O)(=O)Nc2onc(C)c2C)cc1)C(F)(F)F (stereo not drawn)"
  Value units: "%"
  viability: 106
- Molecule: "Cn1c(=O)c2c(nc(CN3CCCCC3)n2CCCc2ccccc2)n(C)c1=O"
  Value units: "%"
  viability: 81.7
- Molecule: "CCOCC(=O)Nc1nc2ccc(OC)cc2s1"
  Value units: "%"
  viability: 90.4
- Molecule: "COCCOC(=O)C1=C(C)NC(=O)CC1c1cc2c(cc1Br)OCO2 (stereo not drawn)"
  Value units: "%"
  viability: 97.4
- Molecule: "COc1cccc(NC(=O)CSc2nnnn2C(C)C)c1"
  Value units: "%"
  viability: 103
- Molecule: "COc1ccc(-c2[nH]nc3c2C(c2ccncc2)C(C#N)=C(N)O3)cc1 (stereo not drawn)"
  Value units: "%"
  viability: 92.2
- Molecule: "COCCCNC(=O)CSc1nc2ccc(N3CCOCC3)cc2c(=O)n1CCc1ccccc1"
  Value units: "%"
  viability: 94.9
- Molecule: "Cc1c(O)c(CN2CCCCC2)cc2c3c(c(=O)oc12)CCC3"
  Value units: "%"
  viability: 82.2
- Molecule: "CC(C)CC(NC(=O)OC(C)(C)C)C(=O)NC(C(=O)N1CCCC1C(N)=O)C(C)C (stereo not drawn) (Boc-Leu-Val-Pro-NH2; configuration not given here)"
  Value units: "%"
  viability: 111
- Molecule: "O=C(O)CCCc1ccccc1"
  Value units: "%"
  viability: 98
- Molecule: "COc1ccc(/C=N/n2cnnc2SCc2ccc(OC)cc2)cc1"
  Value units: "%"
  viability: 89.9
- Molecule: "CCOc1cc2[nH]c(=S)n(CC3CCCO3)c(=O)c2cc1OCC (stereo not drawn)"
  Value units: "%"
  viability: 87.8
- Molecule: "Cc1ccc(S(=O)(=O)N2CCN(c3nc(C)nc4sc(C)c(C)c34)CC2)cc1"
  Value units: "%"
  viability: 99.5
- Molecule: "CCOc1nc(-c2ccccc2O)nc2ccccc12"
  Value units: "%"
  viability: 100
- Molecule: "Cc1cccc2c1nc(-c1ccccc1)n1cnnc21"
  Value units: "%"
  viability: 86.7
- Molecule: "CCN(CC)CCCNC1CCS(=O)(=O)C1 (stereo not drawn)"
  Value units: "%"
  viability: 87.9
- Molecule: "COC(=O)CCN(C(=O)c1ccc2c(c1)OCO2)c1ccccn1"
  Value units: "%"
  viability: 98.5
- Molecule: "CCOC(=O)c1c(NC(=O)OC)sc2c1CCC2"
  Value units: "%"
  viability: 87.1
- Molecule: "COc1ccccc1-n1cnc2cc(NS(=O)(=O)c3ccccc3)ccc21"
  Value units: "%"
  viability: 87.1
- Molecule: "O=c1oc2cc(O)ccc2c2oc3cc(O)ccc3c12"
  Value units: "%"
  viability: 99.4
- Molecule: "CC1CCCCN1C(=O)Cn1nnc(-c2cccnc2)n1 (stereo not drawn)"
  Value units: "%"
  viability: 103
- Molecule: "Cc1cc(C)nc(N2CCC(C(=O)Nc3ccc4c(c3)CCC4)CC2)n1"
  Value units: "%"
  viability: 103
- Molecule: "CCCOc1cccc(C(=O)Nc2cc(NC(=O)c3ccco3)ccc2OC)c1"
  Value units: "%"
  viability: 85
